Reported apparent KD of MS2 coat protein values follow for various sequences
- Test system: MS2 coat protein
- Protocol text: apparent KD of MS2 coat protein; designed switch direction (-1 OFF switch, 1 ON switch): 1; higher = weaker reporter binding
- Measurement context: input ligand: none

Sequence string	Units text	apparent KD of MS2 coat protein
GCUCGGCUGAUGGCCUACAUGAGGAUCACCCAUGUGUGUGGGCAGGAUAUCUAGAUUAAGGAUGUAGAGAAGGGCCUGCCGAGC [SameState NG3 #38] (Eterna round: R96, puzzle: Same State NG 3)	nM	972
UUAAUGAUGAUAGGAUAUACAUGAGGAAUUCUCGUAGAAGGAUCAUGACAUGAGGAUCACCCAUGUAACGCUCCGUAGAGCGUA [JL SSNG1 1.15] (Eterna round: R96, puzzle: Same State NG 1)	nM	1060
UGCUAGGAUAUCUUGAGGAUCACCCAGGAGAAGGAGCCAAGCUAGGAUAUCCUGAGGAUCACCCAGGAGAAGGAGCACAUACUC [pwkr ssNG3 DX 2xF5 +2xFMN.13] (Eterna round: R96, puzzle: Same State NG 3)	nM	102
GGUAUCGACACAGGAUAUGCUAUCCUUUGGGUAGCAGAAGGGUGGACAUGAGGAUCACCCAUGUGGGUGCCAGGGCGUGAGCCC [JL SSNG1 1.84] (Eterna round: R96, puzzle: Same State NG 1)	nM	1040
AUUAUUUAUGCAGGAUAUGAUUAACAUGAGGAUCACCCAUGUGGUGUUGUGAGUAAGGAGAGUGAUCAGAAGGGCAUUUCUUUU [JMF's solution 49] (Eterna round: R96, puzzle: Same State NG 2)	nM	492

====

- Tested on: MS2 coat protein
- Protocol text: apparent KD of MS2 coat protein; designed switch direction (-1 OFF switch, 1 ON switch): -1; higher = weaker reporter binding
- Measurement context: Eterna round: R95; input ligand: microRNA oligo, concentration not stated
Hi, to clarify the labels: MET covers apparent KD of MS2 coat protein from 0.02 µM upward, NOT MET covers anything below 0.02 µM.

Sequence string	Qualitative label
GCGCACUAAGUGAGGAUAUCGAUUUCUUUAAGGAUCGAGAAGGCACAUGAGGAUCACCCAUGUUUGACGUGCGC [JR_BMOE4_Sub097] (puzzle: Brourd's mod of Exclusion 4)	NOT MET
UUUUUACGAGGAUAUCGAUUGUGGUACAUGAGGAUCACCCAUGUAUGUGAUAUUGUAUUUCGAGAAGGCGUUCAGU [JR_E5_Sub060] (puzzle: Exclusion 5)	MET
AAGUACCGUCACGAUAGUGAUGGUACAACAAGUAGUGAAACAUGAGGAUCACCCAUGUCCUCUUUUGCUCGUCUUAU [Sensor 3 - 88] (puzzle: Sensor v3, turn-off variant 2)	MET
CAUCCACAUGAGGAUCACCCAUGUCAGGAUAUCGCGCGCGCGUUUUCGGUCUUUCGCGCGAGAAGGGACGACUG (puzzle: Exclusion 1)	NOT MET
GGUCUGCGAGGAUAUACAUGAGGAUCACCCAUGUGAGAGUUACUAGUGAGGUCGAUUGGUAGAAGGCGCGGACG [JL-ex3-2.04 salish99 mod] (puzzle: Exclusion 3)	MET

====

Reported apparent KD of MS2 coat protein values follow for various sequences
- Test system: MS2 coat protein
- Protocol text: apparent KD of MS2 coat protein; higher = weaker reporter binding
- Measurement context: Eterna round: R101; input ligand: FMN 200 uM
Readout name: apparent KD of MS2 coat protein (nM)

Sequence string	Target of assay	Readout name	Quantitative result
CCUGCACUUCAAGGAUAUCCAGUCGAAACGACUGGAGAAGGUGAGGAUCACCCACCUAGCCUGACGAAAGUCAGGCAUGCAGGA [#SharedSequence - ExNG1-3] (puzzle (switch architecture): Exclusion NG 1)	MS2 coat protein	apparent KD of MS2 coat protein	8.06
AGGAGAAAUGUAGGAUAUAUAUAUAUAUAUGGGCAAAGCGCAUAUAUAUAUAUAGAAGGACAUGAGGAUCACCCAUGUUUCCCU [#Lowering the energy 11] (puzzle (switch architecture): Small Loop Exclusion NG 1)	MS2 coat protein	apparent KD of MS2 coat protein	10.9
UGUAUUAAUGGAGGAUAUCAAUAUCAAACAUGAGGAUCACCCAUGUUGAGGAUCACCCAUGUCCAUGAGAAGGCUGGCGUACGU [My 19th design] (puzzle (switch architecture): Same State NG 2)	MS2 coat protein	apparent KD of MS2 coat protein	10.9
CUAUAGAUAUGAGGAUAUGUAUAUCCAACAUGAGGAUCACCCAUGUUGAGGAUCACCCAUGUAAAGCAGAAGGCAUAUCUAUAG [#HighScoreProbStacks] (puzzle (switch architecture): Same State NG 2)	MS2 coat protein	apparent KD of MS2 coat protein	16.6
